Catalogue of compounds with associated %Inh
System: CSNK1G3
Test conditions: concentration: 1 μM,replicates: in singlicate; n = 1;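 note: KINOMEscan kinase panel screen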

{"columns": ["Compound", "Assay system", "%Inh, %"],
 "data": [
  ["Cc1n[nH]c2cc(Nc3ccnc(Nc4cccc(CN5CCOCC5)c4)n3)ccc12 [GW682569]", "CSNK1G3", 22],
  ["Cn1ccc2ncnc(Oc3ccc(NC(=O)Nc4cccc(C(F)(F)F)c4)c(F)c3)c21", "CSNK1G3", 0],
  ["NC(=O)c1ccc(-c2cc3ncnc(SCC(=O)O)c3s2)cc1", "CSNK1G3", 4],
  ["Cl.Cl.NC[C@H](CC1CCCCC1)NC(=O)c1ccc(-c2ccnc3[nH]ccc23)s1 [GSK1581428]", "CSNK1G3", 64],
  ["COc1cccc(OC)c1C(=O)Nc1cccc(-c2nn3ccccc3c2-c2ccnc(Nc3cccc(F)c3)n2)c1 [GSK361065]", "CSNK1G3", 3],
  ["CC(C(=O)NC1CCN(c2ccnc(Nc3ccc(F)cc3)n2)C1)c1ccc(Cl)cc1 (centres unmarked) [GSK1379713]", "CSNK1G3", 18],
  ["COC(=O)Nc1nc2cc(Oc3ccc(NC(=O)Nc4cc(C(F)(F)F)ccc4Cl)cc3)ccc2[nH]1.Cl [GW697465]", "CSNK1G3", 8],
  ["CCN1CCN(CCCC(=O)Nc2n[nH]c3nc(-c4ccc(O)cc4)c(Br)cc23)CC1 [SB-731579]", "CSNK1G3", 0],
  ["CCOC(=O)N1CCC(n2cnc(-c3ccc(F)cc3)c2-c2ccnc(N)n2)CC1 [SB-219952]", "CSNK1G3", 0],
  ["OCCn1cc(-c2cnc3nnn(Cc4ccc5ncccc5c4)c3n2)cn1", "CSNK1G3", 9],
  ["CCNCC(Cc1ccccc1)NC(=O)c1cc(Br)c(-c2ccnc3[nH]ccc23)s1.Cl.Cl (centres unmarked) [GSK1383280]", "CSNK1G3", 46],
  ["O=C(NCC1CC1)c1ccc(-c2cc(C(=O)NC3CC3)ccc2F)cc1 [GW810445]", "CSNK1G3", 0],
  ["COC(=O)c1cccc(NC(=O)NC2CCN(c3ccnc(Nc4cc(OC)c(OC)c(OC)c4)n3)C2)c1 (centres unmarked) [GSK1379767]", "CSNK1G3", 19],
  ["COc1ccc(Nc2nccc(N3CCC(NC(=O)c4cccc(C#N)c4)C3)n2)cc1 (centres unmarked) [GSK1379730]", "CSNK1G3", 0],
  ["C[C@@H](Oc1cc(-n2cnc3cc(-c4cnn(C)c4)ccc32)sc1C(N)=O)c1ccccc1Cl [GSK580432]", "CSNK1G3", 15],
  ["Cc1ccc2c(-c3ccnc(Nc4ccc(C(F)(F)F)cc4)n3)cnn2n1 [GW819776]", "CSNK1G3", 0],
  ["c1ccc(Oc2ccc(Nc3ccnc4ccc(-c5ccccn5)cc34)cc2)cc1 [GW407034]", "CSNK1G3", 10]
]}

----------
Test system: ERBB3
Test conditions: concentration: 1 μM,replicates: in singlicate; n = 1

{"columns": ["Molecule", "Assay system", "%Inh [%]"],
 "data": [
  ["C[C@@H]1CNc2c(sc3ccc4nc(-c5ccncc5)ccc4c23)C(=O)N1", "ERBB3", 10],
  ["CC(C(=O)NC1CCN(c2ccnc(Nc3ccc(F)cc3)n2)C1)c1ccc(Cl)cc1 (centres unmarked) [GSK1379713]", "ERBB3", 0],
  ["Cc1ccc2c(-c3ccnc(Nc4ccc(C(F)(F)F)cc4)n3)cnn2n1 [GW819776]", "ERBB3", 0],
  ["CCNCC(Cc1ccccc1)NC(=O)c1cc(Br)c(-c2ccnc3[nH]ccc23)s1.Cl.Cl (centres unmarked) [GSK1383280]", "ERBB3", 0],
  ["COc1cc2ncn(-c3cc(OCC4CCCCC4)c(C(N)=O)s3)c2cc1OC [GSK204559]", "ERBB3", 0],
  ["CCn1c(-c2nonc2N)nc2cncc(CNC3CCNCC3)c21.Cl [SB-747651]", "ERBB3", 8],
  ["Cl.Cl.NC[C@H](CC1CCCCC1)NC(=O)c1ccc(-c2ccnc3[nH]ccc23)s1 [GSK1581428]", "ERBB3", 0],
  ["NC(=O)Nc1sc(-c2ccc(F)cc2)cc1C(N)=O [GW789449]", "ERBB3", 54],
  ["O=C1NCCc2[nH]c(-c3ccncc3)cc21", "ERBB3", 21],
  ["COc1cc(Nc2nccc(N3CCC(NC(=O)c4cccc(C#N)c4)C3)n2)cc(OC)c1OC (centres unmarked) [GSK1379751]", "ERBB3", 16],
  ["O=C(Nc1cccc(Oc2ccc3nccn3n2)c1)Nc1cccc(C(F)(F)F)c1", "ERBB3", 45],
  ["Cc1cccc2c(-c3ccncc3)c(-c3ccc(F)cc3)nn12.Cl [GW461487]", "ERBB3", 0],
  ["CC(C)c1nc(-c2cccc(NS(=O)(=O)c3ccccc3)c2)c(-c2ccnc(Nc3ccc4c(c3)CN(C)CC4)n2)s1 [GSK1649598]", "ERBB3", 97.7],
  ["c1ccc(Oc2ccc(Nc3ccnc4ccc(-c5ccccn5)cc34)cc2)cc1 [GW407034]", "ERBB3", 89],
  ["N#Cc1cccc(C(=O)NC2CCN(c3ccnc(Nc4ccc(F)cc4)n3)C2)c1 (centres unmarked) [GSK1379708]", "ERBB3", 0],
  ["Cc1cccc(-c2nc(Nc3ccncc3)c3sccc3n2)n1 [GW869641]", "ERBB3", 29],
  ["Nc1nccc(-c2ccc3c(N)n[nH]c3c2)n1 [GSK1034945]", "ERBB3", 0],
  ["Cl.Nc1n[nH]c2cc(-c3ccccn3)ccc12 [GSK2189892]", "ERBB3", 0],
  ["CNC(=O)c1ccccc1Nc1nc(Nc2cccc(CS(C)(=O)=O)c2)ncc1C.O=CO [GSK1520489]", "ERBB3", 3],
  ["CN1CCN(CCNc2nc3cc(Oc4ccc(NC(=O)Nc5cc(C(F)(F)F)ccc5F)cc4)ccc3[nH]2)CC1.Cl.Cl [GW768504]", "ERBB3", 0],
  ["CS(=O)c1ccc(-c2coc3ccc(-c4n[nH]c(=O)o4)cc23)cc1 (centres unmarked)", "ERBB3", 13],
  ["COC(=O)c1cccc(NC(=O)NC2CCN(c3ccnc(NCc4ccc(F)cc4)n3)CC2)c1 [GSK1379860]", "ERBB3", 8],
  ["CC(=O)Nc1nc2cnc(Nc3cc(NC(=O)c4cccc(CC(C)(C)C#N)c4)ccc3C)nc2s1", "ERBB3", 9],
  ["CC(=O)Nc1ccc(-c2cc3ncnc(SCC(=O)O)c3s2)cc1", "ERBB3", 8],
  ["C[C@@H](Oc1cc(-n2cnc3cc(-c4ccncc4)ccc32)sc1C(N)=O)c1ccccc1Cl [GSK479719]", "ERBB3", 0],
  ["Cn1cc(-c2cccc3c(N)c(C(N)=O)nnc23)cn1", "ERBB3", 27],
  ["O=C(Nc1ccc(Oc2ccc3nc(NC(=O)C4CC4)cn3n2)c(F)c1)c1cccn(-c2ccccc2)c1=O", "ERBB3", 30],
  ["Cc1n[nH]c2cc(Nc3ccnc(Nc4cccc(CN5CCOCC5)c4)n3)ccc12 [GW682569]", "ERBB3", 12],
  ["COC(=O)Nc1nc2cc(Oc3ccc(NC(=O)Nc4cc(C(F)(F)F)ccc4Cl)cc3)ccc2[nH]1.Cl [GW697465]", "ERBB3", 25],
  ["OCCn1cc(-c2cnc3nnn(Cc4ccc5ncccc5c4)c3n2)cn1", "ERBB3", 0],
  ["CN(c1ccc2c(c1)nc(NCc1ccc(F)cc1)n2C)c1ccnc(Nc2ccc(CS(C)(=O)=O)cc2)n1.Cl [GW813244]", "ERBB3", 0],
  ["COc1cccc(C2=C(Nc3cccc(Cl)c3)C(=O)NC2=O)c1 [SB-341556]", "ERBB3", 0],
  ["CN(c1cccc(CNc2nc(Nc3ccc4c(c3)CC(=O)N4)ncc2C(F)(F)F)c1)S(C)(=O)=O", "ERBB3", 0],
  ["CS(=O)(=O)Nc1ccc(-c2ccnc3[nH]ccc23)cc1 [GSK993273]", "ERBB3", 0],
  ["COc1cc2c(Nc3ccc(NC(=O)c4ccccc4)cc3)ncnc2cc1OCCCN1CCOCC1 [GSK301329]", "ERBB3", 0]
]}

----------
Parameter: %Inh. Scope: all listed entries.
System: MKK7
Test conditions: concentration: 1 μM,replicates: in singlicate; n = 1

{"columns": ["Compound", "Assay system", "Uom", "%Inh"],
 "data": [
  ["CC(=O)c1c(-c2ccncc2)[nH]c(-c2ccncc2)c1C [GW493036]", "MKK7", "%", 0],
  ["COc1cccc(CNC(=O)NC2CCN(c3ccnc(Nc4cc(OC)c(OC)c(OC)c4)n3)C2)c1 (stereo not drawn) [GSK1379765]", "MKK7", "%", 0],
  ["COc1cc2ncn(-c3cc(OCC4CCCCC4)c(C(N)=O)s3)c2cc1OC [GSK204559]", "MKK7", "%", 0],
  ["CN1CCN(CCCNc2nccc(-c3c(-c4ccc(F)cc4)nn4cc(C(N)=O)ccc34)n2)CC1 [GW622475]", "MKK7", "%", 0],
  ["O=C(NCC1CC1)c1ccc(-c2cc(C(=O)NC3CC3)ccc2F)cc1 [GW810445]", "MKK7", "%", 8],
  ["Cn1cc(-c2cccc3c(N)c(C(N)=O)nnc23)cn1", "MKK7", "%", 13],
  ["Cn1ccc2ncnc(Oc3ccc(NC(=O)Nc4cc(C(C)(C)C)on4)c(Cl)c3)c21", "MKK7", "%", 0],
  ["Cc1ccc2c(-c3ccnc(Nc4ccc(C(F)(F)F)cc4)n3)cnn2n1 [GW819776]", "MKK7", "%", 0],
  ["COc1cc(Nc2nccc(N3CCC(NC(=O)c4cccc(C#N)c4)C3)n2)cc(OC)c1OC (stereo not drawn) [GSK1379751]", "MKK7", "%", 16]
]}
